Listed next: entries and their corresponding protein stability index.
B1: NETO1 (parent)
chain: KTSLLDQLTNTSGTVIGVTSCIVI

# Variants of: B1
# experimental protocol: protein stability index of a GFP-peptide fusion (GPS, HEK-293T) (PSI 1-6); higher = more stable;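 also: lentivirally expressed fusions sorted by FACS into six bins by GFP to DsRed ratio, PSI derived from sequencing read proportions per bin multiplied by bin number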
# condition info: c terminus: a fixed tail appended
measured quantity: protein stability index

record_sequence=KTSALDQLTNTSGTVIGVTSCIVI measured_quantity="protein stability index" quantitative_readout=2.65
record_sequence=KTSLLDQLDNTSGTVIGVTSCIVI measured_quantity="protein stability index" quantitative_readout=2.58
record_sequence=KTSLLDQLTNTWGTVIGVTSCIVI measured_quantity="protein stability index" quantitative_readout=1.75
record_sequence=KTSLVDQLTNTSGTVIGVTSCIVI measured_quantity="protein stability index" quantitative_readout=2.59
record_sequence=KTSLLDQLTNTFGTVIGVTSCIVI measured_quantity="protein stability index" quantitative_readout=2.37
record_sequence=KTSLLDQLTNTSGTVIGVTFCIVI measured_quantity="protein stability index" quantitative_readout=2.87
record_sequence=KTSLLDQLTNTSGTVIGVTSCIFI measured_quantity="protein stability index" quantitative_readout=2.28
record_sequence=KTSLADQLTNTSGTVIGVTSCIVI measured_quantity="protein stability index" quantitative_readout=3.63
record_sequence=KTSLLDQLTNRSGTVIGVTSCIVI measured_quantity="protein stability index" quantitative_readout=1.74
record_sequence=KTSLLDQLTNTSGTVIGVTSCILI measured_quantity="protein stability index" quantitative_readout=3.18
record_sequence=KTSLLDQLTNTSGTVIGVTECIVI measured_quantity="protein stability index" quantitative_readout=4.15
record_sequence=KTSLKDQLTNTSGTVIGVTSCIVI measured_quantity="protein stability index" quantitative_readout=2.78
record_sequence=QTSLLDQLTNTSGTVIGVTSCIVI measured_quantity="protein stability index" quantitative_readout=2.81
record_sequence=ITSLLDQLTNTSGTVIGVTSCIVI measured_quantity="protein stability index" quantitative_readout=2.82
record_sequence=KTSLLDQLTNTMGTVIGVTSCIVI measured_quantity="protein stability index" quantitative_readout=1.87
record_sequence=KTSLLDQLMNTSGTVIGVTSCIVI measured_quantity="protein stability index" quantitative_readout=2.4
record_sequence=KTSLLDQLTNTSGTVIGVMSCIVI measured_quantity="protein stability index" quantitative_readout=2.5
record_sequence=KTSLCDQLTNTSGTVIGVTSCIVI measured_quantity="protein stability index" quantitative_readout=2.32
record_sequence=KTSLLDKLTNTSGTVIGVTSCIVI measured_quantity="protein stability index" quantitative_readout=2.87
record_sequence=KTSLLDQLTNTSGYVIGVTSCIVI measured_quantity="protein stability index" quantitative_readout=2.64
record_sequence=KTSLLDQLTNTSGTVIGVTCCIVI measured_quantity="protein stability index" quantitative_readout=2.91
record_sequence=KTSLLDQLTNSSGTVIGVTSCIVI measured_quantity="protein stability index" quantitative_readout=2.15
record_sequence=KTSLLDQLTNTSGTVIRVTSCIVI measured_quantity="protein stability index" quantitative_readout=2.88
record_sequence=KTSLLDQLTLTSGTVIGVTSCIVI measured_quantity="protein stability index" quantitative_readout=3.8
record_sequence=KTSLLDQLTNTSGTVIGVTSIIVI measured_quantity="protein stability index" quantitative_readout=2.7
record_sequence=KTSILDQLTNTSGTVIGVTSCIVI measured_quantity="protein stability index" quantitative_readout=4.14
record_sequence=KTSLLDQLTNTSGTVIGVTNCIVI measured_quantity="protein stability index" quantitative_readout=3.04
record_sequence=KTSLLDQKTNTSGTVIGVTSCIVI measured_quantity="protein stability index" quantitative_readout=2.99
record_sequence=KTSLLDQLTNTSGTVIHVTSCIVI measured_quantity="protein stability index" quantitative_readout=3.23
record_sequence=KTSLLDQLTNTSGTVIGVTSCIVW measured_quantity="protein stability index" quantitative_readout=2.92
record_sequence=KTSLLDQLTNTSATVIGVTSCIVI measured_quantity="protein stability index" quantitative_readout=2.12
record_sequence=KKSLLDQLTNTSGTVIGVTSCIVI measured_quantity="protein stability index" quantitative_readout=2.64
record_sequence=KTSLLDQLTNTSGTVIGVTACIVI measured_quantity="protein stability index" quantitative_readout=3.66
record_sequence=KTSLLDQLTNTSGTYIGVTSCIVI measured_quantity="protein stability index" quantitative_readout=3.74
record_sequence=KTSLLDQGTNTSGTVIGVTSCIVI measured_quantity="protein stability index" quantitative_readout=2
record_sequence=KGSLLDQLTNTSGTVIGVTSCIVI measured_quantity="protein stability index" quantitative_readout=3.08
record_sequence=KTSLLDQLTNTSGTVIYVTSCIVI measured_quantity="protein stability index" quantitative_readout=1.98
record_sequence=KTSLLDQLTNTSGTVQGVTSCIVI measured_quantity="protein stability index" quantitative_readout=2.94
record_sequence=KTSLLDQLTVTSGTVIGVTSCIVI measured_quantity="protein stability index" quantitative_readout=3.24
record_sequence=KTSLLDQLTNTSGTVIGHTSCIVI measured_quantity="protein stability index" quantitative_readout=2.95
record_sequence=KTSLLDQLTNTSGTVRGVTSCIVI measured_quantity="protein stability index" quantitative_readout=2.79
record_sequence=KTSELDQLTNTSGTVIGVTSCIVI measured_quantity="protein stability index" quantitative_readout=2.94
record_sequence=KTSLLDQLTNTSGTVSGVTSCIVI measured_quantity="protein stability index" quantitative_readout=3.79
record_sequence=KTSPLDQLTNTSGTVIGVTSCIVI measured_quantity="protein stability index" quantitative_readout=2.67
record_sequence=KTSLLDQLTNTSGTVIGITSCIVI measured_quantity="protein stability index" quantitative_readout=2.84
record_sequence=KTSLLDQLTNTSGTDIGVTSCIVI measured_quantity="protein stability index" quantitative_readout=3.39
record_sequence=KTSLLDQLTNTSGTVIGVTSCSVI measured_quantity="protein stability index" quantitative_readout=1.45
